# Tested on: K-562 leukemia
# assay: NCI tumour cell line growth inhibition, 48 h
endpointLabel: GI50

compound	endpointLabel	observedResult
COc1cc(NC(=O)c2cc(-c3ccc(F)cc3F)ccc2O)cc(OC)c1OC	GI50	5.1 µM
Cc1cc(C(NC(=O)CCCCCNc2cccc3c2C(=O)N(C2CCC(=O)CC2=O)C3=O)c2cccc(N(C)C)c2)c(O)c2ncccc12 (centres undefined)	GI50	0.824 µM
O=C(c1ccc(Cl)cc1)C1[C@H](c2ccc(Br)cc2)[C@@H](c2ccccc2)NC12C(=O)Nc1ccccc12 (some centres undefined)	GI50	2.94 µM
O=C(N/N=C/c1ccc(-c2cccc([N+](=O)[O-])c2)o1)c1[nH]c2ccc(Br)cc2c1-c1ccccc1	GI50	3.28 µM

Data origin, for the record: PubChem BioAssay (NCI)
